Origin of measurements: patent US5554615A

System: Mouse leukemic cell P388
experiment.summary: Inhibitory activity against proliferation of oncocyte, P388 (MTT method)
Assay type: cell-based
study.conditions: 72 h, read-out: 50% cell proliferation-inhibitory concentration (IC50), Table 2-A, 3 days
measurement.type: IC50 (nM)
Just the number in nM, nothing appended.

Give IC50 only, for CCC(Cn1ccc2nc(N)nc(N)c21)c1ccc(C(=O)N[C@@H](CCC(=O)O)C(=O)O)cc1 (some centres unmarked) , using Mouse leukemic cell P388 data. 17

Give IC50 only, for CN(Cc1cnc2nc(N)nc(N)c2n1)c1ccc(C(=O)N[C@@H](CCC(=O)O)C(=O)O)cc1 [MTX, Methotrexate, reference compound] , using Mouse leukemic cell P388 data. 16

Give IC50 only, for `Nc1nc(N)c2c(ccn2CCCc2ccc(C(=O)N[C@@H](CCC(=O)O)C(=O)O)cc2)n1` , using Mouse leukemic cell P388 data. 12

Give IC50 only, for CCC(CCn1ccc2nc(N)nc(N)c21)c1ccc(C(=O)N[C@@H](CCC(=O)O)C(=O)O)cc1 (some centres unmarked) , using Mouse leukemic cell P388 data. 12

Give IC50 only, for CC(CCn1ccc2nc(N)nc(N)c21)c1ccc(C(=O)N[C@@H](CCC(=O)O)C(=O)O)cc1 (some centres unmarked) , using Mouse leukemic cell P388 data. 16

====

system: dihydrofolate reductase (DHFR) (Mus musculus)
Construct: DHFR was prepared from mouse leukemic cell P388; endogenous in cells
Sequence (P00375 whole entry): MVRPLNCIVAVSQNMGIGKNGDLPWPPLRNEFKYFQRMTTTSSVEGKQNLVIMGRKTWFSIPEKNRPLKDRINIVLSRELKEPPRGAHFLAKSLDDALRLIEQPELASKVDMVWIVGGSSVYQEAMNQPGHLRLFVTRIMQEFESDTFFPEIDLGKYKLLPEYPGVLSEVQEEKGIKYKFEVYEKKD
experiment.summary: Inhibitory activity against dihydrofolate reductase (DHFR)
Description: DHFR was prepared from mouse leukemic cell P388 according to the method of J. M. Whiteley et al. [see Arch. A solution of purified DHFR was added to a solution comprising a potassium phosphate buffer solution (pH: 7.5, 75 mM), mercaptoethanol (7.5 mM) and NADPH (0.25 mM) to make up to a total amount of 0.57 mi. Each of the serial dilutions of the compound according to the present invention in an amount of 0.015 ml was added to the mixture prepared above. […]
pIC50: −log10 of the molar value.
Decide using pIC50: a value greater than or equal to 7 is Met, a smaller one is Not met.

Please indicate if the recorded pIC50 for CCC(CCn1ccc2nc(N)nc(N)c21)c1ccc(C(=O)N[C@@H](CCC(=O)O)C(=O)O)cc1 (stereo partly drawn) [Ex. 6] meets or exceeds 7. Not met

Please indicate if the recorded pIC50 for CCC(Cn1ccc2nc(N)nc(N)c21)c1ccc(C(=O)N[C@@H](CCC(=O)O)C(=O)O)cc1 (stereo partly drawn) [Ex. 9] meets or exceeds 7. Met

Please indicate if the recorded pIC50 for Nc1nc(N)c2c(n1)CCC2CCCc1ccc(C(=O)N[C@@H](CCC(=O)O)C(=O)O)s1 (stereo partly drawn) [Ex. 105] meets or exceeds 7. Met

====

Tested on: mouse colonic cancer cell Colon 38
experiment.summary: Inhibitory activity against proliferation of oncocyte, Colon 38 (MTT method)
Type: cell-based
study.conditions: 72 h, read-out: 50% cell proliferation-inhibitory concentration (IC50), Table 2-A, 3 days
Experimental: Mouse leukemic cell P388, mouse colonic cancer cell Colon 38, human rhinopharyngeal cancer cell KB and human lung cancer cell A549 were used as the oncocytes. […] The microplate was placed in a carbon dioxide incubator containing 5% of CO2 and incubated at 37° C. for one day. […] The number of viable cells was determined according to the method of M. C.
Values of IC50 strictly less than 60 nM map to met, and values of at least 60 nM map to not met.

Is 60 nM strictly greater than the molecule's reported IC50? molecule: CC(CCn1ccc2nc(N)nc(N)c21)c1ccc(C(=O)N[C@@H](CCC(=O)O)C(=O)O)cc1 (some centres unmarked) not met

Is 60 nM strictly greater than the molecule's reported IC50? molecule: CCC(CCn1ccc2nc(N)nc(N)c21)c1ccc(C(=O)N[C@@H](CCC(=O)O)C(=O)O)cc1 (some centres unmarked) not met

Is 60 nM strictly greater than the molecule's reported IC50? molecule: CCC(Cn1ccc2nc(N)nc(N)c21)c1ccc(C(=O)N[C@@H](CCC(=O)O)C(=O)O)cc1 (some centres unmarked) met

Is 60 nM strictly greater than the molecule's reported IC50? molecule: `Nc1nc(N)c2c(ccn2CCCc2ccc(C(=O)N[C@@H](CCC(=O)O)C(=O)O)cc2)n1` met
